SUBJECT OF TEST: DnaK (Escherichia coli, UniProt P0A6Y8)
Construct: made in house
Sequence (P0A6Y8 whole entry): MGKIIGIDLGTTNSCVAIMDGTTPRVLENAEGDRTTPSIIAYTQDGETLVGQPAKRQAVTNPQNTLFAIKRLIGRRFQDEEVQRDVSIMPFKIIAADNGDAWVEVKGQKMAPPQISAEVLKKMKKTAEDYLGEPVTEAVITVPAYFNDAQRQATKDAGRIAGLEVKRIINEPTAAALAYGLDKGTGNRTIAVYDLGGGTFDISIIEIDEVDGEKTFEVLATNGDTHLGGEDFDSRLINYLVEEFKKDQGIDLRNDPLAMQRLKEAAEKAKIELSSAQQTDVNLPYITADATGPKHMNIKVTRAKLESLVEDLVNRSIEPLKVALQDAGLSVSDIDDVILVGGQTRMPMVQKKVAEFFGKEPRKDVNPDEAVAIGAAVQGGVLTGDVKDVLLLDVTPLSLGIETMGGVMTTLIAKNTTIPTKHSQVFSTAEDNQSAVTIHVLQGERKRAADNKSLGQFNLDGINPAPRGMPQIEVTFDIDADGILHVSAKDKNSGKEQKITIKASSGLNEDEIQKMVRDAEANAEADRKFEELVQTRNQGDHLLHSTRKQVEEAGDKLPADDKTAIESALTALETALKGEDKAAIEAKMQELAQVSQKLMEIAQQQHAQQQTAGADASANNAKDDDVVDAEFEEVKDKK
PROTOCOL: Fluid phase competition binding assay with acrylodan-labeled NR peptide (a-NR)
Set-up: species or system bacterial
ASSAY CONTEXT: read-out: Apparent dissociation equilibrium constant (K'd)
Ends that are not written are not given here.
For each of the sequences below, state its Kd.
Numbers only, in nM.

Each of the following entries comes with a recorded value; kindly state Kd for each.
1. VCGERGFFYTPKT [Peptide B18-30]
2. SHAMAPVLYLQDK [Control peptide (sigma32 aa192-204)]
3. LVEALYLVCGERG [Peptide B11-23]

[reply]
1. 51900
2. 500
3. 2200
